B1: COX4I1 (parent)
chain: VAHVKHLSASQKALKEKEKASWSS

Variants of: B1
Test: protein stability index of a GFP-peptide fusion (GPS, HEK-293T) (PSI 1-6); higher = more stable;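 note: lentivirally expressed fusions sorted by FACS into six bins by GFP to DsRed ratio, PSI derived from sequencing read proportions per bin multiplied by bin number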
Conditions: c terminus: a fixed tail appended
So basically: protein stability index at 3 or higher? That is label 1. Lower than 3? That is label 0.

H3M | label 1

**Query** Has K12H a recorded protein stability index greater than or equal to 3?
**Result** label 0

**Query** Assess whether reported protein stability index for H6D sits at 3 or higher.
**Result** label 1

**Query** Check if protein stability index >= 3 (inclusive). Item: S23P
**Result** label 1

**Query** Dear colleague, could you confirm whether K12L has protein stability index at or above 3?
**Result** label 1

**Query** Check this variant for protein stability index at or above 3: S8E
**Result** label 1

**Query** Decide: is the reported value of protein stability index for K17W equal to or greater than 3?
**Result** label 0

**Query** Could you please find out whether L7A has protein stability index that meets 3 or exceeds it?
**Result** label 0

**Query** Check the entry A13F : does protein stability index equal or exceed 3?
**Result** label 0

**Query** Dear colleague, could you confirm whether K12C has protein stability index at or above 3?
**Result** label 0

**Query** In plain terms: is recorded protein stability index at least 3 for A13I ?
**Result** label 0
